B1: glmS ribozyme (parent)
chain: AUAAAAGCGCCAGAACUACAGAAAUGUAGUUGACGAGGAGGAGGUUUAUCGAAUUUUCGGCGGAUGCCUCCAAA

Variants of: B1
Experiment: self-cleavage kobs at 40 uM GlcN6P; higher = faster cleavage; RNA array
Conditions: with glucosamine-6-phosphate
This sample holds only a part of the variants without activity.
observable: self-cleavage kobs at 40 uM GlcN6P

seq | self-cleavage kobs at 40 uM GlcN6P
AUAAAAGCGCCAGAACUACAGAAAUGUAGUUGACGACGAGUAGGUUUAUCGAAUUUUCGGCGCAUGCCUCCAAA [G37C G41U G63C] | < 1e-05 s⁻¹
AUAAAAGCGCCAGAACUACAGAAAUGUAGUUGACGAGGAGGAGGUUUUUUGAAUUUUCGGCGGAUGCCUCCAAA [A48U C50U] | < 1e-05 s⁻¹
AUAAAAGCGCCAGAACUACAGAAAUGUAGCCGACGAGGAGGAGGUUUAUCGAAUUUUCGGCGGAUGCCUCCAAA [U30C U31C] | 3.3e-05 s⁻¹
AUAAAAGCGCCAGAACUACAGAAAUGUAGUUGACGAGGAGGAGGUUUAUCGAGUUUUCGGCGGGUGCCUCCAAA [A53G A64G] | 0.00117 s⁻¹

input: Name the recorded self-cleavage kobs at 40 uM GlcN6P for AUAAAAGCGCCAGAACUACAGAAAUGUAGUUGACGAGGCGGGGGUUUAUCGAAUUUUCGGCGGCUGGCUCCAAA [A39C A42G A64C C67G] .
output: < 1e-05 s⁻¹

input: Fill in: self-cleavage kobs at 40 uM GlcN6P of AUAAAAGCGCCAGAACUACAGAAAUGUAGUUGACGAGGAGGAGGUUCAUCGAAUUUUCGGUGGAUGCCUCCAAA [U47C C61U] is ___
output: < 1e-05 s⁻¹

input: Which measured self-cleavage kobs at 40 uM GlcN6P value corresponds to AUAAAACCGCCAGAACUACAGAAAUGUAGUUGACGAGGAGGAGGUUUUUCGAAUUUUCGGCGGAUGCCUGCAAA [G7C A48U C70G] ?
output: < 1e-05 s⁻¹

input: Look up self-cleavage kobs at 40 uM GlcN6P: AUAAAAGCGCCAGAACUACAGAAAUGUAGUUGACGAGGAGGAGGUAUAUCGAAUUUUCGGCGGAUUCCUCCAAA [U46A G66U]
output: 5.04e-05 s⁻¹

input: So what does the record say about self-cleavage kobs at 40 uM GlcN6P for AUAAAAGCGCCAGAACUACAGAAAUGUAGUUGACGAGGAGGAGGUUUAUCGAAUUUUUGGCGGCUGCCUACAAA [C58U A64C C70A] ?
output: < 1e-05 s⁻¹

input: Need self-cleavage kobs at 40 uM GlcN6P of AUAAAAGCGCCAGGACUACAGAAAUGUAGUUGACGAGGAGGAGGUUUAUCGAACUUUCGGCGGAUGCCCCCAAA [A14G U54C U69C] , thanks.
output: 0.000416 s⁻¹

input: What measured self-cleavage kobs at 40 uM GlcN6P goes with AUAAAAGCGCCAGAUCUACAGAAAUGUAGUUGACGAGGAGGAGGUUUAUCGAAUUUUCGGCGGAUGCCUCUAAA [A15U C71U] ?
output: 0.000165 s⁻¹

input: Can you share its self-cleavage kobs at 40 uM GlcN6P? I mean this variant: AUAAAAGCGGCAGAACUACAGAAAUGUAGUUGACGAGGAGGAGGUGUAUCGAAUUUUCGGCGGAUGCCUCCAAA [C10G U46G]
output: < 1e-05 s⁻¹

input: Bench note: what self-cleavage kobs at 40 uM GlcN6P did AUAAAAGCGCCAGAACUACAGAAAUGUAGUUGACGAGGAGGAGGUUUAUCGAAUUUUCUGCGGUUGCCUCCAAA [G59U A64U] show?
output: < 1e-05 s⁻¹

input: # query: self-cleavage kobs at 40 uM GlcN6P of entry AUAAAAGCGCCAGACCUACAGAAAUGUAGUUGACGAGGAGGAGUUUUAUCGAAUUUUCGGCGGAUGCCUCCAAA [A15C G44U]
output: < 1e-05 s⁻¹

input: Form field: reported self-cleavage kobs at 40 uM GlcN6P of AUAAAAGCGCCAGCACUACAGAAAUGUAGUUGACGAGGAGGAGGUUUAUCGAAUUAUCGGCGGAUGCCUCCAAA [A14C U56A]
output: 7.03e-05 s⁻¹

input: Need self-cleavage kobs at 40 uM GlcN6P of AUAAAAGCGCCAGGACUACAGAAAUGUAGUUGACGAGGAGGAGGUUUAUCGAAUUUUCGGCGGAUACCUCCAAA [A14G G66A] , thanks.
output: 0.000901 s⁻¹

input: I am curious: what self-cleavage kobs at 40 uM GlcN6P value has been reported for AUAAAAGCGCUAGAACUACAGAAAUGUAGUUGACGAGGAGGAGGGUUAUAGAAUUUUCGGCGGAUGCCUCCAAA [C11U U45G C50A] ?
output: < 1e-05 s⁻¹

input: Value lookup for self-cleavage kobs at 40 uM GlcN6P; key = AUAAAAGCGCCAGAACUACAGAAAUGUAGUUGACGAGGAGGAGGUCUAUCGAAUUUUCCGCGGAUGCUUCCAAA [U46C G59C C68U]
output: < 1e-05 s⁻¹

input: Report self-cleavage kobs at 40 uM GlcN6P for AUAAAAGCGACAGAACUACAGAAAUGUAGUUGACGAGAAGGAGGUUUAUCGAAUUUUCGGCGGAUGCCUCCAAA [C10A G38A] please.
output: < 1e-05 s⁻¹

input: Return reported self-cleavage kobs at 40 uM GlcN6P; argument: AUAAAAGCGCCAGAACUACAGAAAUGUAUUUGACGAGGAGGAGGUUUAUCGAAUUGUCGGCGGAUGCCUCCAAA [G29U U56G]
output: 6.41e-05 s⁻¹

input: Which self-cleavage kobs at 40 uM GlcN6P is listed for AUAAAAGCGCCAGAACUACAGAAAUGUAGUUGACGCGGAGGAGAUUUAUCGAAUUUUCGGCGGAUGCCUCCAAA [A36C G44A] ?
output: < 1e-05 s⁻¹
